biological target: thymidine phosphorylase obtained from human placenta (Homo sapiens); construct: thymidine phosphorylase obtained from human placenta in a highly purified form; from tissue; host or cells: human placenta; assay: Test 1 (Thymidine Phosphorylase Inhibiting Effects); format: biochemical
Sequence (P19971 11-482): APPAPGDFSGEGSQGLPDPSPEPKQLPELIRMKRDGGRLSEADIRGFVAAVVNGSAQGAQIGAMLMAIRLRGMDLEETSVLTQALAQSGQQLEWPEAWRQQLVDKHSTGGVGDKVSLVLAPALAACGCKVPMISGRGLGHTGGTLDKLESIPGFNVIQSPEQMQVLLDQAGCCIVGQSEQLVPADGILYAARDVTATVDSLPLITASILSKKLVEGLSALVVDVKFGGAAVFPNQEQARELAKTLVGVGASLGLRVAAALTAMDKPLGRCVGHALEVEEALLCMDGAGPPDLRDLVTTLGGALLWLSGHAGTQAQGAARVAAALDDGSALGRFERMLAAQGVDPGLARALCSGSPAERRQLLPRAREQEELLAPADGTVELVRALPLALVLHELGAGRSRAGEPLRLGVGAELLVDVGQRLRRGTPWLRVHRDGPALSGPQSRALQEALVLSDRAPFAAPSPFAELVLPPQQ
observed_property: pIC50
For clarity, pIC50 is expressed as the negative log10 of concentration in mol/L.

Past entries and their recorded results:
1) Cn1ccn(Cc2[nH]c(=O)[nH]c(=O)c2Cl)c1=N	6.62
2) CN1CCN(Cc2[nH]c(=O)[nH]c(=O)c2Cl)C1=N	7.34
3) Cc1c(CN2CCCC2=N)[nH]c(=O)[nH]c1=O	6.92
4) N#Cc1c(CN2CCCC2=N)[nH]c(=O)[nH]c1=O	7.77

Now consider the entry below.
Reported pIC50, molecule `N=C1NCCN1Cc1[nH]c(=O)[nH]c(=O)c1Br` : ____
7.52

* * *

molecular target: thymidine phosphorylase obtained from human placenta (Homo sapiens); construct: thymidine phosphorylase obtained from human placenta in a highly purified form; from tissue; host or cells: human placenta; assay: Test 1 (Thymidine Phosphorylase Inhibiting Effects); assay type: biochemical; settings: inhibition of [6-^3H]thymine formation from [6-^3H]thymidine, 37° C., 5 minutes, pH 7.4; read-out: IC50
Counter-ions that a name gives are not always drawn.
Lab note: compare IC50 with 1 µM, writing fulfilled if less and not fulfilled if equal or more.

1) CNC(=N)SCc1[nH]c(=O)[nH]c(=O)c1Cl [Compound 57]	fulfilled
2) Cc1cn(COCCO)c(=O)[nH]c1=O [Acyclothymidine, reference compound]	not fulfilled
3) O=c1[nH]c(CN2C=NCC2)c(Cl)c(=O)[nH]1 [Compound 50, hydrochloride]	not fulfilled
4) CC(=N)NCc1[nH]c(=O)[nH]c(=O)c1Cl [Compound 73, hydrochloride]	not fulfilled
5) O=c1[nH]c(CN2CCCC2)c(Cl)c(=O)[nH]1 [Compound 1, 5-chloro-6-(1-pyrrolidinylmethyl)uracil]	not fulfilled

Identify whether the compound N=C(N)NCc1[nH]c(=O)[nH]c(=O)c1Cl [Compound 68, hydrochloride] records IC50 below 1 µM.
fulfilled

Identify whether the compound O=c1[nH]c(CN2CCCC2)c(I)c(=O)[nH]1 [Compound 3] records IC50 below 1 µM.
not fulfilled

Identify whether the compound N#Cc1ccc(O)[nH]c1=O [3-Cyano-2,6-dihydroxypyridine, reference compound] records IC50 below 1 µM.
not fulfilled

Identify whether the compound N#Cc1c(CSC(=N)N)[nH]c(=O)[nH]c1=O [Compound 56, hydrochloride] records IC50 below 1 µM.
fulfilled

Identify whether the compound O=c1[nH]c(CN2CCC2)c(Cl)c(=O)[nH]1 [Compound 6, 5-chloro-6-(1-azetidinylmethyl)uracil] records IC50 below 1 µM.
not fulfilled

Identify whether the compound O=c1[nH]c(CN2CCCC2)c(Br)c(=O)[nH]1 [Compound 2, 5-bromo-6-(1-pyrrolidinylmethyl)uracil] records IC50 below 1 µM.
fulfilled
